Tested on: HCI11 (cells of an ER-positive luminal breast cancer xenograft)
Assay: cell viability (% of vehicle); higher = less cytotoxic;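 also: PDX cells carrying CMV promoter-driven luciferase, viability read as total photon flux per second by IVIS imaging following D-luciferin, vehicle control 0.1% DMSO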
Details: 10 µM; 72 h
Field: label. Allowed values: Fulfilled (cell viability < 90) or Not fulfilled (cell viability >= 90).

- Cl.NCCc1c[nH]c2ccc(O)cc12 [Serotonin HCl]: Not fulfilled
- COc1cc2c(cc1OC)C13CCN4CC5=CCOC6CC(=O)N2C1C6C5CC43 (configuration not stated): Not fulfilled
- NC(Cc1ccc(N(CCCl)CCCl)cc1)C(=O)O (configuration not stated): Not fulfilled
- C[N+]1(C)CCCC(OC(=O)C(O)(c2ccccc2)c2ccccc2)C1.[Br-] (configuration not stated) [Mepenzolate Bromide]: Not fulfilled
- CC12CC(=CO)C(=O)CC1CCC1C2CCC2(C)C1CCC2(C)O (configuration not stated): Fulfilled
- CN1[C@@H]2C[C@@H](O)C[C@H]1[C@@H]1O[C@@H]12: Not fulfilled

In the record for CC(C)OC(=O)[C@H](C)N[P@](=O)(CO[C@H](C)Cn1cnc2c(N)ncnc21)Oc1ccccc1 , is cell viability less than 90?
Not fulfilled

cell viability strictly < 90 for this compound? C[C@]12CC[C@H]3[C@@H](CC[C@@]45O[C@@H]4C(O)=C(C#N)C[C@]35C)[C@@H]1CC[C@@H]2O
Not fulfilled

Consider the compound C=CCC1(O)CCC2C3CCC4=CC(=O)CCC4=C3C=CC21C (configuration not stated) . Is its cell viability strictly less than 90?
Fulfilled

###

Tested on: WHIM30 (cells of a triple-negative basal-like breast cancer xenograft)
Assay: cell viability (% of vehicle); higher = less cytotoxic
Settings: 10 µM; 72 h
Catalogue of molecules with associated cell viability
API note: the answer field is a bare number with no unit suffix.

Worked examples, 2 molecules total:
* CCCCCCCCCCCC[N+](C)(C)CCOc1ccccc1.[Br-] [Domiphen Bromide] | 28.4
* OC(c1ccccc1)(c1ccccc1)C1CCNCC1 | 113

Form field: reported cell viability of Nc1nc(N)nc(NC2CC2)n1
154

Entry under review: CCNCC.O=S(=O)(O)c1cc(O)ccc1O [Ethamsylate] . Reported cell viability?
103

Bench note: what cell viability did CN(C)C(=O)C(CCN1CCC(O)(c2ccc(Cl)cc2)CC1)(c1ccccc1)c1ccccc1.Cl [Loperamide HCl] show?
102

###

cell viability reference
Tested on: WHIM2 (cells of a triple-negative basal-like breast cancer xenograft)
Assay: cell viability (% of vehicle); higher = less cytotoxic
Conditions: 10 µM; 72 h
Where a name gives a salt, the structure may show the parent alone.
Please reply with the value in numeric form only.

Worked set:
- N/C(N)=N\N.Cl [Aminoguanidine hydrochloride]: 95.1
- O=C(O)c1nn(Cc2ccc(Cl)cc2Cl)c2ccccc12 [Lonidamine]: 80.2
- Cc1ccc(-n2nccn2)c(C(=O)N2CCN(c3nc4cc(Cl)ccc4o3)CCC2C)c1 (centres undefined): 118
- C[N+](C)(C)CCCCCCCCCC[N+](C)(C)C.[Br-].[Br-] [Decamethonium Bromide]: 89.8
- COc1cc2c(c(OC)c1OC)-c1ccc(OC)c(=O)cc1C(NC(C)=O)CC2 (centres undefined) [Colchicine]: 96
- Cl.Cn1c(CCCC(=O)O)nc2cc(N(CCCl)CCCl)ccc21 [Bendamustine HCl]: 71.4
- Cc1c(N)nc(C(CC(N)=O)NCC(N)C(N)=O)nc1C(=O)NC(C(=O)NC(C)C(O)C(C)C(=O)NC(C(=O)NCCc1nc(-c2nc(C(=O)NCCC[S+](C)C)cs2)cs1)C(C)O)C(O[C@@H]1O[C@@H](CO)[C@@H](O)[C@H](O)[C@@H]1O[C@H]1O[C@H](CO)[C@@H](O)[C@H](OC(N)=O)[C@@H]1O)c1cnc[nH]1 (some centres undefined) [Bleomycin Sulfate]: 77
- Cl.O=C1CCC2(O)C3Cc4ccc(O)c5c4C2(CCN3CC2CC2)C1O5 (centres undefined) [Naltrexone HCl]: 88.9
- CN(C)C1C(=O)C(C(N)=O)=C(O)C2(O)C(=O)C3=C(O)c4c(O)cccc4C(C)(O)C3C(O)C12 (centres undefined) [Oxytetracycline (Terramycin)]: 72.1
- CC(O)(CS(=O)(=O)c1ccc(F)cc1)C(=O)Nc1ccc(C#N)c(C(F)(F)F)c1 (centres undefined) [Bicalutamide]: 90.2

I would be grateful if you could share the reported cell viability for Cc1cc(C(C#N)c2ccc(Cl)cc2)c(Cl)cc1NC(=O)c1cc(I)cc(I)c1[O-].[Na+] (centres undefined) [Closantel Sodium] .
44.6

Name the recorded cell viability for Cl.NCC1(CC(=O)O)CCCCC1 [Gabapentin HCl] .
85.7

Requested read-out: cell viability. Entry: C[C@]12CC[C@H]3[C@@H](CC[C@@]45O[C@@H]4C(O)=C(C#N)C[C@]35C)[C@@H]1CC[C@@H]2O [Trilostane]
115

Form field: reported cell viability of N#Cc1ccccc1-c1cc(-c2ccccn2)cn(-c2ccccc2)c1=O [Perampanel]
89.1

###

cell viability listing for selected compounds.
System: HCI01 (cells of a triple-negative basal-like breast cancer xenograft)
Assay: cell viability (% of vehicle); higher = less cytotoxic
Details: 10 µM; 72 h
Keep the answer to the number alone.

For orientation, consider the following solved cases.
* C=CCC1(O)CCC2C3CCC4=CC(=O)CCC4=C3C=CC21C (stereo not given) [Altrenogest] | 172
* NCC1(CC(=O)O)CCCCC1 [Gabapentin] | 96.8
* CCNCC.O=C(O)Cc1ccccc1Nc1c(Cl)cccc1Cl [Diclofenac Diethylamine] | 91.7
* CC(=O)Nc1cc([As](=O)(O)O)ccc1O [Arsonic acid] | 105

Let us examine a further case.
Consider the compound Cc1ccc(-n2nccn2)c(C(=O)N2CCN(c3nc4cc(Cl)ccc4o3)CCC2C)c1 (stereo not given) and give its measured cell viability.
136

###

Test system: HCI09 (cells of a triple-negative luminal androgen receptor type breast cancer xenograft)
Assay: cell viability (% of vehicle); higher = less cytotoxic
Details: 10 µM; 72 h
Label scheme, based on cell viability: group A = under 90, group B = from 90 up to 100, group C = 100 and over

Below are worked cases with known answers.
- CCCN1CC(CSC)CC2c3cccc4[nH]cc(c34)CC21.CS(=O)(=O)O (configuration not stated) [Pergolide mesylate]: group C
- O=c1[nH]c2ccccc2n1C1CCN(CCCC(c2ccc(F)cc2)c2ccc(F)cc2)CC1 [Pimozide]: group A
- CNC1CC(N)C(O)C(OC2OC(CO)C(O)C3OC4(OC(C(N)CO)C(O)C(O)C4O)OC23)C1O (configuration not stated): group C

For CCCCCCCCCCCCCCCC[N+](C)(C)C.[Br-] [Cetrimonium Bromide (CTAB)] , which cell viability bin applies?
group A

Where would Cc1cccc(C(C)c2cnc[nH]2)c1C.Cl (configuration not stated) [Medetomidine HCl] land among the classes by reported cell viability?
group B

Hey, which category is Cl.Cn1c(CCCC(=O)O)nc2cc(N(CCCl)CCCl)ccc21 [Bendamustine HCl] in, do you know?
group B

For this molecule, which bin applies? O=c1[nH]c2ccccc2n1CCCN1CCC(n2c(=O)[nH]c3cc(Cl)ccc32)CC1
group C

###

Tested on: HCI11
Test: cell viability (% of vehicle); higher = less cytotoxic
Settings: 10 µM; 72 h
cell viability strictly less than 90 = yes. Otherwise no.

# count of solved cases: 3
• NCCC(O)(P(=O)([O-])O)P(=O)([O-])O.[Na+].[Na+] [Pamidronate Disodium] = yes
• c1ccc2c(c1)sc1ccccc12 = no
• CCC1(C)CC(=O)NC(=O)C1 [Bemegride] = no

Does the reported cell viability of the following compound sit strictly below 90? O=C(OC1CC2CCC(C1)[N+]21CCCC1)C(O)(c1ccccc1)c1ccccc1.[Cl-] (centres undefined) [Trospium chloride]
no

State whether 90 exceeds cell viability recorded for NC(=O)CN1CC(O)CC1=O (centres undefined) .
yes

Criterion: cell viability strictly below 90. Is it met by Oc1cc(Cl)ccc1Oc1ccc(Cl)cc1Cl ?
yes

###

Test system: WHIM2
Experiment: cell viability (% of vehicle); higher = less cytotoxic
Details: 10 µM; 72 h
cell viability under 90 gets Criterion met, anything at or over 90 gets Criterion not met.

Does the reported cell viability of CC(C)c1c(CN(C)C(C)Cc2ccccc2)n(C)n(-c2ccccc2)c1=O (stereo not drawn) stay below 90?
Criterion not met

###

System: HCI13 (cells of an ER-positive luminal breast cancer xenograft)
Test: cell viability (% of vehicle); higher = less cytotoxic
Settings: 10 µM; 72 h
Structures can show the parent of a compound that is named as a salt.
Consider the following compounds and their measured cell viability readings.
The answer should be a number; do not append a unit.

Please review the following examples before continuing.
• CCCC[N+]1(C)[C@@H]2C[C@@H](OC(=O)[C@H](CO)c3ccccc3)C[C@H]1[C@@H]1O[C@@H]12 (some centres not stated) [Scopolamine butylbromide] = 97.4
• Cc1cc(C(C#N)c2ccc(Cl)cc2)c(Cl)cc1NC(=O)c1cc(I)cc(I)c1[O-].[Na+] (configuration not stated) [Closantel Sodium] = 35.4
• Cl.NCC1(CC(=O)O)CCCCC1 [Gabapentin HCl] = 109
• Cc1c(N)nc(C(CC(N)=O)NCC(N)C(N)=O)nc1C(=O)NC(C(=O)NC(C)C(O)C(C)C(=O)NC(C(=O)NCCc1nc(-c2nc(C(=O)NCCC[S+](C)C)cs2)cs1)C(C)O)C(O[C@@H]1O[C@@H](CO)[C@@H](O)[C@H](O)[C@@H]1O[C@H]1O[C@H](CO)[C@@H](O)[C@H](OC(N)=O)[C@@H]1O)c1cnc[nH]1 (some centres not stated) [Bleomycin Sulfate] = 39.2

Given the entry CCCC1CC(=O)N(C(CC)C(N)=O)C1 (configuration not stated) , what cell viability was observed with HCI13?
87.8

Enter reported cell viability observed with HCI13 for NCC1(CC(=O)O)CCCCC1
88.1

What cell viability appears in the records for this compound with HCI13? C[N+](C)(C)CCCCCCCCCC[N+](C)(C)C.[Br-].[Br-] [Decamethonium Bromide]
105

Give HCI13 cell viability for CCC1(c2cccc(O)c2)CCCCN(C)C1.Cl (configuration not stated) [Meptazinol HCl]
111

Give cell viability (HCI13) of the following compound: NC(=O)CN1CC(O)CC1=O (configuration not stated)
123

Lab note: need cell viability for CC(C)NCC(O)c1ccccc1Cl.Cl (configuration not stated) [Clorprenaline HCL] on HCI13, anyone have it?
83.1

Identify the measured cell viability of C[N+]1(C)CCCC(OC(=O)C(O)(c2ccccc2)c2ccccc2)C1.[Br-] (configuration not stated) [Mepenzolate Bromide] for HCI13.
133

Request body: readout cell viability, system HCI13, query Nc1nc(N)nc(NC2CC2)n1 . Return the value.
109

# get_value(readout= cell viability, system= HCI13) for CN1[C@@H]2C[C@@H](O)C[C@H]1[C@@H]1O[C@@H]12
129

Given the entry O=S(=O)(F)Cc1ccccc1 , what cell viability was observed with HCI13?
87.2

Which measured cell viability belongs to CC(C)CC(CN)CC(=O)O (configuration not stated) , tested on HCI13?
138

Any idea what cell viability came out for NC(Cc1ccc(N(CCCl)CCCl)cc1)C(=O)O (configuration not stated) on HCI13?
77.7

HCI13 / cell viability / CC(C)c1c(CN(C)C(C)Cc2ccccc2)n(C)n(-c2ccccc2)c1=O (configuration not stated) : value?
85.3
